- System: DMS 114 tumor spheroids, viability % test/control
- Test method notes: Anticancer human tumor DMS 114 cell line growth inhibition;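 further: luminescence used as a proxy for viable cells; spheroids exposed to compounds for 7 days before read-out; 100% = DMSO vehicle control viability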
- Study conditions: second compound 0.000949 µM; first compound 3 µM; hits give low values; spheroids with HUVEC and MSC
Record form. Attribute: viability, T/C. Fill in for each entry.
One number for each entry, in %.

Below: 3 compounds and their reported viability, T/C.
# viability, T/C (compound: Cn1ncnc1[C@H]1c2n[nH]c(=O)c3cc(F)cc(c23)N[C@@H]1c1ccc(F)cc1 + COc1cc2c(cc1O)CCNC21CSC2c3c(OC(C)=O)c(C)c4c(c3C(COC1=O)N1C(O)C3Cc5cc(C)c(OC)c(O)c5C(C21)N3C)OCO4 ) is 0.78

viability, T/C reading for Cc1sc2c(c1C)C(c1ccc(Cl)cc1)=NC(CC(=O)Nc1ccc(O)cc1)c1nnc(C)n1-2 (centres undefined) + COc1cc2c(cc1O)CCNC21CSC2c3c(OC(C)=O)c(C)c4c(c3C(COC1=O)N1C(O)C3Cc5cc(C)c(OC)c(O)c5C(C21)N3C)OCO4 : 0.19

Form: compound = CNCc1ccc(-c2cc(-c3nc(-c4ccc(S(=O)(=O)C(C)C)cc4)cnc3N)on2)cc1 + COc1cc2c(cc1O)CCNC21CSC2c3c(OC(C)=O)c(C)c4c(c3C(COC1=O)N1C(O)C3Cc5cc(C)c(OC)c(O)c5C(C21)N3C)OCO4 ; viability, T/C = 0.15

Next:
// viability, T/C lookup, compound = O=C(c1cc(Cc2n[nH]c(=O)c3ccccc23)ccc1F)N1CCN(C(=O)C2CC2)CC1 + COc1cc2c(cc1O)CCNC21CSC2c3c(OC(C)=O)c(C)c4c(c3C(COC1=O)N1C(O)C3Cc5cc(C)c(OC)c(O)c5C(C21)N3C)OCO4 , result: 2.86

* * *

- Test system: DMS 114 tumor spheroids, viability % test/control
- Test method notes: Anticancer human tumor DMS 114 cell line growth inhibition;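 further: luminescence used as a proxy for viable cells; spheroids exposed to compounds for 7 days before read-out; 100% = DMSO vehicle control viability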
- Study conditions: second compound 0.003 µM; first compound 0.3 µM; hits give low values; spheroids with HUVEC and MSC
Answer each item with its documented viability, T/C.
One number for each entry, in %.

O=C(c1cc(Cc2n[nH]c(=O)c3ccccc23)ccc1F)N1CCN(C(=O)C2CC2)CC1 + CC[C@@]1(O)C(=O)OCc2c1cc1n(c2=O)Cc2cc3c(CN(C)C)c(O)ccc3nc2-1 tested on DMS 114 tumor spheroids, viability % test/control gave viability, T/C: 98.3

For the 4 compounds below, give their viability, T/C values.
1. Cn1ncnc1[C@H]1c2n[nH]c(=O)c3cc(F)cc(c23)N[C@@H]1c1ccc(F)cc1 + CC[C@@]1(O)C(=O)OCc2c1cc1n(c2=O)Cc2cc3c(CN(C)C)c(O)ccc3nc2-1
2. Cc1sc2c(c1C)C(c1ccc(Cl)cc1)=NC(CC(=O)Nc1ccc(O)cc1)c1nnc(C)n1-2 (stereo not given) + COc1cc2c(cc1O)CCNC21CSC2c3c(OC(C)=O)c(C)c4c(c3C(COC1=O)N1C(O)C3Cc5cc(C)c(OC)c(O)c5C(C21)N3C)OCO4
3. CNCc1ccc(-c2cc(-c3nc(-c4ccc(S(=O)(=O)C(C)C)cc4)cnc3N)on2)cc1 + COc1cc2c(cc1O)CCNC21CSC2c3c(OC(C)=O)c(C)c4c(c3C(COC1=O)N1C(O)C3Cc5cc(C)c(OC)c(O)c5C(C21)N3C)OCO4
4. Cc1sc2c(c1C)C(c1ccc(Cl)cc1)=NC(CC(=O)Nc1ccc(O)cc1)c1nnc(C)n1-2 (stereo not given) + CC[C@@]1(O)C(=O)OCc2c1cc1n(c2=O)Cc2cc3c(CN(C)C)c(O)ccc3nc2-1

1. 38.9
2. 0.13
3. 0.26
4. 18.9

These entries and their values trace back to PubChem BioAssay AID1845202.
